Where these numbers come from: ChEMBL document CHEMBL1201862

Kindly state IC50 for each of the entries shown.
testTarget: Type-1 angiotensin II receptor (Homo sapiens, UniProt P30556)
Sequence (P30556 whole entry): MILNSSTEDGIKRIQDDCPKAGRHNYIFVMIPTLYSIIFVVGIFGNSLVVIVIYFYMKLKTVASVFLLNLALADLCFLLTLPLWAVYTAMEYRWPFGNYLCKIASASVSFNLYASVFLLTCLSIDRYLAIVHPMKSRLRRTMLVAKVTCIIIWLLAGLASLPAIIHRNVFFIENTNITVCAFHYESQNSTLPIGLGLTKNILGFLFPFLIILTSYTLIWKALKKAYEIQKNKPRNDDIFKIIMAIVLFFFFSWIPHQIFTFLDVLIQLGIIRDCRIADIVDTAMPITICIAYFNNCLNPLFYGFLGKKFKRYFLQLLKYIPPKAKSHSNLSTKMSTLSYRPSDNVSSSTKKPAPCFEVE
protocol: antagonism of angiotensin II type 1 receptor – cell-based, uHTS hits, selectivity assay for APJ receptor antagonist project, dose response (AID 463214);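 further: antagonist potency against angiotensin II stimulated AT1 response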
Assay type: functional
Calls of active or inactive are those of the source. No stated cut-off is given here; in the data, active = IC50 of 20 µM or less and inactive = more.

Examples with answers:
molecule=Cc1noc(C)c1C(=O)NNc1ccc(C(C)C)cc1 propertylabel=IC50 reportedvalue="3.68 µM (active)"
molecule=CCCCn1c(NC(=O)c2ccco2)c(C(=O)OCC)c2nc3ccccc3nc21 propertylabel=IC50 reportedvalue="10.4 µM (active)"
molecule="O=C(CN1C(=O)C2C3CC(C(Br)C3Br)C2C1=O)OCC(=O)c1cccc([N+](=O)[O-])c1 (stereo not given)" propertylabel=IC50 reportedvalue="20.4 µM (not active)"

Dear colleague, could you send me IC50 for each of the items below? Thanks.
1. O=C(c1ccco1)C(O)c1ccco1 (stereo not given)
2. COc1cc(OC)cc(C(=O)N[C@H](C(=O)OCC(=O)c2ccc(C)c([N+](=O)[O-])c2)C(C)C)c1

["35.2 µM (not active)", "> 40 µM (not active)"]
